test system: Fibroblast; assay: Multiplex assay against human fibroblast; type: toxicity, cell-based; details: 24 h, 10 µM, compound concentration 10 uM, replicate 1
Recorded Population Mitotic Cells (%), one value per entry.
measurement-label: Population Mitotic Cells (%)

{"columns": ["compound", "measurement-label", "result"],
 "data": [
  ["Cc1c[nH]c2nccc(Oc3c(F)cc(Nc4cc(Cl)nc(N)n4)cc3F)c12 [BAY-549]", "Population Mitotic Cells (%)", "30%"],
  ["COc1ccccc1CN[C@H]1C2CCN(CC2)[C@H]1C(c1ccccc1)c1ccccc1 [CP-96345]", "Population Mitotic Cells (%)", "44%"],
  ["CNC(=O)Nc1ccc2c(c1)[C@@]1(CC2)OC(=O)N(CC(=O)N(Cc2ccc(F)cc2)[C@@H](C)C(F)(F)F)C1=O [A-486]", "Population Mitotic Cells (%)", "39%"],
  ["O=c1[nH]c2ccccc2n1C1CCN(Cc2ccc(-c3[nH]c4cc5ncnc5cc4nc3-c3ccccc3)cc2)CC1", "Population Mitotic Cells (%)", "29%"],
  ["Cl.O=C(O)c1cc(-c2ccc(C3CCNCC3)cc2)c2ccc(-c3ccc(C(F)(F)F)cc3)cc2c1", "Population Mitotic Cells (%)", "46%"],
  ["CNC(=O)Nc1ccc(-c2nc(N3CC4CCC(C3)O4)c3cnn(C4CCC5(CC4)OCCO5)c3n2)cc1", "Population Mitotic Cells (%)", "22%"],
  ["CC(C)c1noc(N2CCC(COc3ccc(-c4ccc(S(C)(=O)=O)cc4)nc3)CC2)n1 [GSK-1292263]", "Population Mitotic Cells (%)", "47%"],
  ["CC(C)NC(=O)N1CC[C@H](NC2=Nc3cc(F)ccc3N(CC(F)F)c3ccc(Cl)cc32)C1", "Population Mitotic Cells (%)", "35%"]
]}

====

tested on: U2OS; test: Multiplex assay against U2OS; format: toxicity, cell-based; details: human, 48 h, 1 µM, compound concentration 1 uM, replicate 2
Lab note: cut-off is 80%. Strictly less in Population Healthy Nuclei (%) is Fulfilled. Exactly 80% or more is Not fulfilled.

{"columns": ["compound", "class-assignment"],
 "data": [
  ["Cc1cccc(CN2CCN(C(c3ccccc3)c3ccc(Cl)cc3)CC2)c1.Cl.Cl (stereo unspecified)", "Not fulfilled"],
  ["Cl.O=C(O)c1cc(-c2ccc(C3CCNCC3)cc2)c2ccc(-c3ccc(C(F)(F)F)cc3)cc2c1", "Not fulfilled"],
  ["CCc1ccc(OCc2ccccc2C(=O)Nc2ccc3nc(C)cc(N)c3c2)cc1.Cl", "Fulfilled"],
  ["CNC(=O)Nc1ccc(-c2nc(N3CC4CCC(C3)O4)c3cnn(C4CCC5(CC4)OCCO5)c3n2)cc1", "Fulfilled"],
  ["CC(C)NC(=O)N1CC[C@H](NC2=Nc3cc(F)ccc3N(CC(F)F)c3ccc(Cl)cc32)C1", "Not fulfilled"],
  ["CCc1nn(CCCN2CCN(c3cccc(Cl)c3)CC2)c(=O)n1CCOc1ccccc1.Cl [NEFAZODONE HYDROCHLORIDE]", "Not fulfilled"],
  ["Cc1ccc2c(c1)c1c(n2CCc2ccc(C)nc2)CCN(C)C1 [LATREPIRDINE]", "Fulfilled"],
  ["O=C(c1cc2c(cc1F)OC(c1ccc(F)cc1)(c1ccc(Cl)cc1Cl)O2)N1CCOCC1 (stereo unspecified)", "Not fulfilled"],
  ["CC(C)c1noc(N2CCC(COc3ccc(-c4ccc(S(C)(=O)=O)cc4)nc3)CC2)n1 [GSK-1292263]", "Not fulfilled"],
  ["O=c1cc(N2CCOCC2)oc2c(-c3cccc4c3sc3ccccc34)cccc12", "Fulfilled"],
  ["COC(=O)C1=C(C)NC(C)=C(C(=O)OCCCN2CCC(c3ccccc3)(c3ccccc3)CC2)[C@H]1c1cccc([N+](=O)[O-])c1 [NIGULDIPINE]", "Fulfilled"],
  ["CC1=C(C(=O)Nc2cc3cn[nH]c3cc2F)C(c2ccc(C(F)(F)F)cc2)CC(=O)N1 (stereo unspecified)", "Not fulfilled"],
  ["C[C@]12CC[C@@H]3c4ccc(O)cc4CC[C@H]3[C@@H]1CC[C@@H]2O [ESTRADIOL]", "Not fulfilled"]
]}

====

test system: HEK-293T; test: Multiplex assay against HEK293T; type: toxicity, cell-based; conditions: human, 24 h, 10 µM, compound concentration 10 uM, replicate 2
Is Population Hoechst High Intensity Objects (%) at least 5%? Then condition met. If not, condition not met.

{"columns": ["molecule", "class-assignment"],
 "data": [
  ["COc1ccc(-c2ccc3ncc4c(c3c2)n(-c2ccc(N3CCNCC3)c(C(F)(F)F)c2)c(=O)n4C)cn1.O=C(O)/C=C\\C(=O)O", "condition met"],
  ["Cc1cccc(CN2CCN(C(c3ccccc3)c3ccc(Cl)cc3)CC2)c1.Cl.Cl (stereo not drawn)", "condition not met"],
  ["CCCSc1nc(N[C@@H]2C[C@H]2c2ccc(F)c(F)c2)c2nnn([C@@H]3C[C@H](OCCO)[C@@H](O)[C@H]3O)c2n1", "condition met"],
  ["COc1cc(Nc2nccc(-c3cnn4nc(OC)ccc34)n2)cc(C(F)(F)F)c1", "condition met"],
  ["CNC(=O)Nc1ccc2c(c1)[C@@]1(CC2)OC(=O)N(CC(=O)N(Cc2ccc(F)cc2)[C@@H](C)C(F)(F)F)C1=O", "condition not met"],
  ["Cc1ccc2c(c1)c1c(n2CCc2ccc(C)nc2)CCN(C)C1 [LATREPIRDINE]", "condition met"],
  ["CC(C)OC(=O)N1CCC(Oc2ncnc3c2cnn3-c2ccc(S(C)(=O)=O)cc2F)CC1", "condition not met"],
  ["Cc1c[nH]c2nccc(Oc3c(F)cc(Nc4cc(Cl)nc(N)n4)cc3F)c12", "condition not met"],
  ["CC(C)c1noc(N2CCC(COc3ccc(-c4ccc(S(C)(=O)=O)cc4)nc3)CC2)n1", "condition met"],
  ["Cc1nc(N2CC[C@H](O)C2)ncc1-c1cc(C(F)(F)F)cc2[nH]ncc12", "condition not met"],
  ["O=c1cc(N2CCOCC2)oc2c(-c3cccc4c3sc3ccccc34)cccc12", "condition not met"],
  ["CNC(=O)Nc1ccc(-c2nc(N3CC4CCC(C3)O4)c3cnn(C4CCC5(CC4)OCCO5)c3n2)cc1", "condition met"]
]}

====

system: U2OS; experiment: Multiplex assay against U2OS; assay type: toxicity, cell-based; conditions: human, 48 h, 1 µM, compound concentration 1 uM, replicate 1

{"columns": ["compound", "quantity-unit", "Population Normal (%)"],
 "data": [
  ["CN1CCN(Cc2ccc(Nc3ncc(Cl)c(Nc4ccccc4S(=O)(=O)N(C)C)n3)cc2)CC1", "%", 91],
  ["Cc1ccc2c(c1)c1c(n2CCc2ccc(C)nc2)CCN(C)C1 [LATREPIRDINE]", "%", 97],
  ["COc1ccccc1CN[C@H]1C2CCN(CC2)[C@H]1C(c1ccccc1)c1ccccc1", "%", 96],
  ["CNC(=O)Nc1ccc(-c2nc(N3CC4CCC(C3)O4)c3cnn(C4CCC5(CC4)OCCO5)c3n2)cc1", "%", 81],
  ["Cl.O=C(O)c1cc(-c2ccc(C3CCNCC3)cc2)c2ccc(-c3ccc(C(F)(F)F)cc3)cc2c1", "%", 96],
  ["CC(C)c1noc(N2CCC(COc3ccc(-c4ccc(S(C)(=O)=O)cc4)nc3)CC2)n1", "%", 90],
  ["Cc1c[nH]c2nccc(Oc3c(F)cc(Nc4cc(Cl)nc(N)n4)cc3F)c12", "%", 97],
  ["O=C(c1cc2c(cc1F)OC(c1ccc(F)cc1)(c1ccc(Cl)cc1Cl)O2)N1CCOCC1 (configuration not stated)", "%", 92],
  ["Cc1ccc(C)c(Oc2ccncc2C(=O)N2CCN(C3CC3)c3ccccc32)c1", "%", 96],
  ["CCc1nn(CCCN2CCN(c3cccc(Cl)c3)CC2)c(=O)n1CCOc1ccccc1.Cl [NEFAZODONE HYDROCHLORIDE]", "%", 94],
  ["COc1cc2ncn(-c3cc(OCc4ccccc4C(F)(F)F)c(C(N)=O)s3)c2cc1OC [GW843682X]", "%", 91],
  ["O=c1cc(N2CCOCC2)oc2c(-c3cccc4c3sc3ccccc34)cccc12", "%", 94],
  ["CC(C)Oc1ccccc1C(=O)Nc1ccccc1C(=O)Nc1cccc(S(=O)(=O)C(F)(F)F)c1", "%", 96],
  ["CC(C)OC(=O)N1CCC(Oc2ncnc3c2cnn3-c2ccc(S(C)(=O)=O)cc2F)CC1", "%", 95],
  ["CCc1ccc(OCc2ccccc2C(=O)Nc2ccc3nc(C)cc(N)c3c2)cc1.Cl", "%", 84],
  ["CCCSc1nc(N[C@@H]2C[C@H]2c2ccc(F)c(F)c2)c2nnn([C@@H]3C[C@H](OCCO)[C@@H](O)[C@H]3O)c2n1", "%", 95],
  ["C[C@]12CC[C@@H]3c4ccc(O)cc4CC[C@H]3[C@@H]1CC[C@@H]2O", "%", 98]
]}
